System: SR leukemia
assay-name: NCI tumour cell line growth inhibition, 48 h; in the data active = GI50 below about 0.43 µM; inactive = the rest
Your answer must be one of the following: active, inactive

# outcome recorded in this test, key = `COc1cc(C(=O)N2CCN(c3ncnc4ccccc34)CC2)c(N)cc1OCc1ccccc1` inactive

# outcome recorded in this test, key = `Cc1nnc(-c2cccc(-c3ccc(C(=O)NCC4CC4)cc3)c2)o1` inactive

# outcome recorded in this test, key = `Cc1nc2ccccc2c(/C=C/c2ccc(Cl)cc2)c1C(=O)/C=C/c1ccc(C(F)(F)F)cc1` active

# outcome recorded in this test, key = `Cc1csc(/C=C/C(=O)c2nnn(-c3ccnc4c(C(F)(F)F)cccc34)c2C)c1` inactive

# outcome recorded in this test, key = `CC(=O)C1=C(O)C=C2Oc3c(C(=O)/C=C/c4c(Cl)cccc4Cl)c(O)c(C)c(O)c3[C@]2(C)C1=O` inactive

# outcome recorded in this test, key = `COCc1cc(C(=O)Nc2cc([C@H]3CC[C@@H](OC(=O)NC(C)C)C3)[nH]n2)n(C)n1` inactive

# outcome recorded in this test, key = `CC(C)=CCC[C@](C)(O)[C@H]1CC[C@]2(C)[C@@H]1CC[C@@H]1[C@@]3(C)CC/C(=N/O)C(C)(C)[C@@H]3CC[C@]12C` inactive

# outcome recorded in this test, key = `c1ccc(CN2COc3c(ccc4c3OCN(Cc3ccccc3)C4)C2)cc1` inactive
